Target or test system: FMDV O/18074 146S antigen (Foot-and-mouth disease virus serotype …, strain)

{"Binder": "pOA-18 (antibody, V domains shown) V domain 1: EEKLVESGGGLVQPGGSLRLSCVGSGFTFTNYEIVWVRQAPGRGPEWISYISNGGARKAYATSVRGRFSISRDNSRNTVDLQLNNLKIEDTGRYYCVGGGHCLGDNCYSLSLWGPGVELVVSS V domain 2: QTVIQEPAMSVSPGGTVTLTCAFYSGSVTSENYPSWFQQTSGQPPREVIYMTDNRPTGVPDRFSGSISGNKATLTITGAQAEDEADYFCMLYKGTTNVPFGGGTHLTVL", "binding result": "binds"}
